Each record here notes measured self-cleavage.
B1: HDV Ribozyme (parent)
chain: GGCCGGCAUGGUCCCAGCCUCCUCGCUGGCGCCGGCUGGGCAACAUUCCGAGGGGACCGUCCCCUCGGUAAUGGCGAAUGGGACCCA

variants of: B1; assay: self-cleavage, relative activity (ratio to wild type); higher = more cleavage; co-transcriptional
measured.parameter: self-cleavage

>>> measured_number("GGCCGGCAUGGUCCCAGCGUCCUCGCUGGCGCCGGCUGGGCAACAUUCCGAGGGGGCCGUCCCCUCGGUAAUGGCGAAUGGGACCCA [C19G A56G]")
0.0639
>>> measured_number("GGCCGGCAUGGUCCCUGCCUCCUCGCUGGCGCCGGCUGGGCAACAUUCCGAGGGGACCGUCCCCUCGGUAAGGGCGAAUGGGACCCA [A16U U72G]")
0.465
>>> measured_number("GGCCGGCAUGGUCCCAGCCUCCUCGCUGGCGCCGGCCGGGCAACAUUCCGAGGGGACCGUCCCCUCGGUAAUGGCGAAUGAGACCCA [U37C G81A]")
0.283
>>> measured_number("GGCCGGCAUGGUCCCAGCCUCCUCGCUGGCGCCUGCUGGGCAACAUUCCGAGGGGACCGUCCCCUCGGUAAUGGUGAAUGGGACCCA [G34U C75U]")
0.109
>>> measured_number("GGCCGGCAUGGUCCCAGCCUCCUCGCUGGCGCCGGCUGGGCAACAUUCCGAGGGGACCGUCCCCUCGGUAACGGCGAAUGGGGCCCA [U72C A83G]")
0.318
>>> measured_number("GGCCGGCAUGGUCCCAGCCUCCUCGCUGGCGCCGGCUGGGCAGCAUUCCGAGGGGACCGUCCCCUCGGUAAUGGCGAUUGGGACCCA [A43G A78U]")
0.178
>>> measured_number("GGCCGGCAUGGUCCCAGCCUCCUCGCUGGCGCCGGCUGGGCAGCAUUCCGAGGGGACCGUCCCCUCGGUAAUGGCGAAUGGGACCCU [A43G A87U]")
0.554
>>> measured_number("GGCCGGCAUGGUCCCAUCCUCCUCGCUGGCGCCGGCAGGGCAACAUUCCGAGGGGACCGUCCCCUCGGUAAUGGCGAAUGGGACCCA [G17U U37A]")
0.185
>>> measured_number("GGCCGGCAUGGUCCCAGCCUCCUCGCUGGCCCCGGCUGGGCCACAUUCCGAGGGGACCGUCCCCUCGGUAAUGGCGAAUGGGACCCA [G31C A42C]")
0.128
>>> measured_number("GGCCGGCAUGGUCCCAGCCUCCUCGCUGGCGCCGGCUGGGCAACAUUCCGAGGGGACCGUCCCCUCGGUAAUGACGACUGGGACCCA [G74A A78C]")
0.0811
>>> measured_number("GGCCGGCAUGGUCCCAGCCUCCUCGCUGGCGCCGGCUGGGCAACAUUCCGAGGGUACCGUUCCCUCGGUAAUGGCGAAUGGGACCCA [G55U C61U]")
0.859
>>> measured_number("GGCCGGCAUGGUCCCAGCCUCCUCGCUGGCGCCGGCUGGGCAACAUUCCGAGGGGACAGUCCCCUCGGUAAUGGCGAAAGGGACCCA [C58A U79A]")
0.789
>>> measured_number("GCCCUGCAUGGUCCCAGCCUCCUCGCUGGCGCCGGCUGGGCAACAUUCCGAGGGGACCGUCCCCUCGGUAAUGGCGAAUGGGACCCA [G2C G5U]")
0.145
>>> measured_number("GGCCGGCAUGGUCCCAGCCUCCUCGCUGGCGCCGGCUGGGCAACAUCCCGAGGGGACCGUCCCCUCGGUGAUGGCGAAUGGGACCCA [U47C A70G]")
1.08
>>> measured_number("GGCCGGCCAGGUCCCAGCCUCCUCGCUGGCGCCGGCUGGGCAACAUUCCGAGGGGACCGUCCCCUCGGUAAUGGCGAAUGGGACCCA [A8C U9A]")
0.755
>>> measured_number("GCCCGGCAUCGUCCCAGCCUCCUCGCUGGCGCCGGCUGGGCAACAUUCCGAGGGGACCGUCCCCUCGGUAAUGGCGAAUGGGACCCA [G2C G10C]")
0
>>> measured_number("GGCCGGCAUGGUCCCAGCCUCCUCGCUGGCGCUGGCUGGGCAACAUUCCGAGGGGACCGUCCCCUCGGUAAUGGCGAAUGGGAACCA [C33U C84A]")
0.65
>>> measured_number("GGCCGGCAUGGUCCCAGCCUCCUCGCUGGCGCCGGCUGGGCAACAUUGCGAGGGGACCUUCCCCUCGGUAAUGGCGAAUGGGACCCA [C48G G59U]")
1.07
>>> measured_number("GGCCGGCAUGGUCCCAGCAUCCUCGCUGGCGCCGGCAGGGCAACAUUCCGAGGGGACCGUCCCCUCGGUAAUGGCGAAUGGGACCCA [C19A U37A]")
0.0519
>>> measured_number("GGCCGGCAUGGUCCCAGCCUCCUCGCUGGCGCCGGCUGGGCAUCAUUCCGAGGGGACCGUCCCCUCGGUAAUGGCGUAUGGGACCCA [A43U A77U]")
0.151
>>> measured_number("GGCCGGCAUGAUCCCAGUCUCCUCGCUGGCGCCGGCUGGGCAACAUUCCGAGGGGACCGUCCCCUCGGUAAUGGCGAAUGGGACCCA [G11A C18U]")
0.12
>>> measured_number("GGCCGGCAUGGUCCCAGCCUCCUCGCUGGCGCCGGAUGGGCAACAUCCCGAGGGGACCGUCCCCUCGGUAAUGGCGAAUGGGACCCA [C36A U47C]")
0.0519
>>> measured_number("GGCCGGCAUGGUCCCAGCCUCCUCGCUGGCGCCGGCUGGGCAACAUUCCUAGGGGACCGUCCCCUCGGUAAUGGCGGAUGGGACCCA [G50U A77G]")
0.639
>>> measured_number("GGCCGGCAUGGUCCCAGCCUCCUCGCUGGCGCGGGCUGGGCAACAUUUCGAGGGGACCGUCCCCUCGGUAAUGGCGAAUGGGACCCA [C33G C48U]")
0.13
>>> measured_number("GGCCGGCAUGGUCCCAGCCUCCUCGCUGGCGCCGGCUGGGCAACAUUCCGAGGGCACCGUCCCCUCGGUAAUGGCGAAUGGGGCCCA [G55C A83G]")
0.767
>>> measured_number("GGCCGGCAUGGUCCCAGCAUCCUCGCUGGCGCCGGCUGGGCAACAUUCCGAGGGGACCGUCCCCUCGGUAAUGGCGAAUGGCACCCA [C19A G82C]")
0.133
>>> measured_number("GGCCGGCAUGGUCCCAGCCGCCUCGCUGGCGCCGGCUGGGCAACAUUCCGAGGGGACCGUCCCCUCGGUAAUGGCGAAAGGGACCCA [U20G U79A]")
0.175
>>> measured_number("GGCCGGCAUGGUCCCAGCCUCCUCGCUGGCGCCGGCUGCGCAACAUUCCGAGGGGACCGUCCCCUCUGUAAUGGCGAAUGGGACCCA [G39C G67U]")
0.277
>>> measured_number("GGCCGGCAUGGUCCCAGCCUCCUCGCUGGCGCCGGCUGGGCAACAUUCCGAGGGGACCGUACCCUCGGUACUGGCGAAUGGGACCCA [C61A A71C]")
1.12
>>> measured_number("GGCCGGCAUGUUCCCAGCCUCCUCGCUGUCGCCGGCUGGGCAACAUUCCGAGGGGACCGUCCCCUCGGUAAUGGCGAAUGGGACCCA [G11U G29U]")
0.0536
>>> measured_number("GGCCGGCAUGGUCCCAGCCUCCGCGCUGGCGCCGGCUGGGCAACAUUCCGAAGGGACCGUCCCCUCGGUAAUGGCGAAUGGGACCCA [U23G G52A]")
0.554
>>> measured_number("GGCCGCCAUGGUCCCAGCCUCCUCGCUGGCGCCGGCUGGGCAACAUCCCGAGGGGACCGUCCCCUCGGUAAUGGCGAAUGGGACCCA [G6C U47C]")
0.453
>>> measured_number("GGCCGGCAUGGGCCCAGCCUCCUCGCUGGCGCCGGCUGGGCAACAUUCCGAGGGCACCGUCCCCUCGGUAAUGGCGAAUGGGACCCA [U12G G55C]")
0.95
>>> measured_number("GGCCGGCAUGAUCCCAGCCUCCUCGCUGGCGCCGGCUGGGCAACAUUCCGAGGGGACCGUCCCCUCGGUAAUGGCGAAUGGGACUCA [G11A C85U]")
0.787
>>> measured_number("GGCCGGCAUGGUCCCAGCCUCCUCGCUGGCGCCGGCUGGGCAACAUUCCGAGGGGACCGUCCCCUGGGUAAUGGCGAUUGGGACCCA [C66G A78U]")
0.48
>>> measured_number("GGCCGGCAUGGUCCCAGCCUCUUCGCGGGCGCCGGCUGGGCAACAUUCCGAGGGGACCGUCCCCUCGGUAAUGGCGAAUGGGACCCA [C22U U27G]")
0.554
>>> measured_number("GGCCGGCAUGGUCCCAGCCUCCUCGCUGGCGCCGGCUGGGCAACAUUCCGAGGGGACCGUACCCGCGGUAAUGGCGAAUGGGACCCA [C61A U65G]")
0.92
>>> measured_number("GGCCGGCAUGGUCCCAGCCUCCUCGCUGGCGCCGGCUGGGCAACAUUCCGAGGGUGCCGUCCCCUCGGUAAUGGCGAAUGGGACCCA [G55U A56G]")
0.912
>>> measured_number("CGCCGGCAUGGUCCCAGCCUCAUCGCUGGCGCCGGCUGGGCAACAUUCCGAGGGGACCGUCCCCUCGGUAAUGGCGAAUGGGACCCA [G1C C22A]")
0.203
>>> measured_number("GGCCGGCAUGGUCCCAGCCUCCUCGCGGGCGCCGGCUGGGCAACAUUCCGAGGGGACCGUCCCCUCGGUAAUGGUGAAUGGGACCCA [U27G C75U]")
0.138
>>> measured_number("GGCCGGCAUGGUCCCAGCCUCCUCGCUGGCGCCGGCUGGGCAACAUUCCGAGGGGACCGUCCCCACGGUAAUGGCGAAUGGGACCCC [U65A A87C]")
1.04
>>> measured_number("GGCCGGCAUGGUCCCAGCCUCCUCGCUGGCGCCGGCUGGGCAACAUUCCGAGGGGACCGUCCCCUCGGUAAUGGCGUAUGAGACCCA [A77U G81A]")
0.185
>>> measured_number("GGCCGGCAUGGUCCCAGCCUCCUCGCUGGCGCCGGCGGGGCAACAUACCGAGGGGACCGUCCCCUCGGUAAUGGCGAAUGGGACCCA [U37G U47A]")
0.158
>>> measured_number("GGCCGGCAUGGUCCCAGCCUCCUCGCUGGCGCCGGCUGGGCAACAUUCCGAGGGGACCGUCCCCUCGGUACUUGCGAAUGGGACCCA [A71C G73U]")
0.141
>>> measured_number("GGCCGGCAUGGUCCCAGCCUCCUCGCUGGCGCCGGCUGGGCAACAUUCCGAGGGGACCGUCCCCUCGGUAAUGGCGAAUGGGAUGCA [C84U C85G]")
0.923
>>> measured_number("GGCCGGCAUGGUCCCAGCCUCCUCGCUGGCGCCGGCUGGGCAACAGUCCGAGGGGACCGUCCCCUCGCUAAUGGCGAAUGGGACCCA [U46G G68C]")
0.396

Source listed as the RNAGym collection of RNA variant scans (doi:10.7554/elife.80360).
